- assay.target: hMATR (Homo sapiens, UniProt P09237)
- Sequence (P09237 95-267): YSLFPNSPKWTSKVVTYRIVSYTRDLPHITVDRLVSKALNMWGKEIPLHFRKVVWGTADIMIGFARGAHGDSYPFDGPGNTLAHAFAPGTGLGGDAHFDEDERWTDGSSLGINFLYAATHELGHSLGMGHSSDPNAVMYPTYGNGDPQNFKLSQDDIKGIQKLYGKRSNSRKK
measurement.label: Ki

INSERT INTO results (molecule_smiles, assay_target, measurement_label, assay_value) VALUES
  ('CC1(C)SCCN(S(=O)(=O)c2ccc(Oc3cc[n+]([O-])cc3)cc2)[C@H]1C(=O)NO', 'hMATR (Homo sapiens, UniProt P09237)', 'Ki', '1140 nM');
